# System name: human recombinant HDAC6 (Homo sapiens, UniProt Q9UBN7)
# Sequence (Q9UBN7 1-1215): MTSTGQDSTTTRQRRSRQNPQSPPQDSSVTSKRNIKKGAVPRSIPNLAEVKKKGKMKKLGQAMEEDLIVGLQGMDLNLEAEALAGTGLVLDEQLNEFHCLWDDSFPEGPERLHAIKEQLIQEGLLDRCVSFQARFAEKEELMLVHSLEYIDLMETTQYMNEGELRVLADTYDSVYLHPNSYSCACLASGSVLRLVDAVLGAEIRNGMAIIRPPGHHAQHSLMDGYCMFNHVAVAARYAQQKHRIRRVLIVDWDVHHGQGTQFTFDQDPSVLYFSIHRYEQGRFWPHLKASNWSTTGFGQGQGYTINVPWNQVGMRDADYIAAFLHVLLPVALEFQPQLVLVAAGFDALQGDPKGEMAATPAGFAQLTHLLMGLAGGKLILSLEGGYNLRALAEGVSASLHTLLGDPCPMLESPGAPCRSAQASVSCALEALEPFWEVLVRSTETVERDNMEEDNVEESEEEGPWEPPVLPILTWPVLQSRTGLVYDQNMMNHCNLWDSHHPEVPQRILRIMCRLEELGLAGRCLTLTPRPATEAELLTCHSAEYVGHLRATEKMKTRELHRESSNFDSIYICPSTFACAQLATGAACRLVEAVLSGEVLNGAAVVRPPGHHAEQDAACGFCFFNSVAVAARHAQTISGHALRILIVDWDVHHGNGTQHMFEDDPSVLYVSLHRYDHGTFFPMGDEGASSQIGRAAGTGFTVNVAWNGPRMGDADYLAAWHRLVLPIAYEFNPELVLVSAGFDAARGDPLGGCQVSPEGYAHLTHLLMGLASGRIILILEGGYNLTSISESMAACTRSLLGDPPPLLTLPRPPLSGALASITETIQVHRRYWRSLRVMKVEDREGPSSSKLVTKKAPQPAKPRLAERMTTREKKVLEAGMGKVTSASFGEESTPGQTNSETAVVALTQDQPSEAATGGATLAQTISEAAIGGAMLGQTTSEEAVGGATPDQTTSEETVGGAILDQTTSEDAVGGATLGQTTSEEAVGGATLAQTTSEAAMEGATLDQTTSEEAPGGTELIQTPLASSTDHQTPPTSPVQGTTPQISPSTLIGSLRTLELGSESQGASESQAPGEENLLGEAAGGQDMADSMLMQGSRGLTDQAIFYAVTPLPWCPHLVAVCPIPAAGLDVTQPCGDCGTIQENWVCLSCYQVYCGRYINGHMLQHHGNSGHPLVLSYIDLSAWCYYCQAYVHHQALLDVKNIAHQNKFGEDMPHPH
# Assay: HDAC enzyme activity inhibition assay (HDAC Fluorimetric Drug Discovery Kit), HDAC6
# Setup conditions: human recombinant HDAC6, same protocol as HDAC1
pIC50: −log10 of the molar value.
Readout: pIC50

Substance smiles: O=C(N(Cc1ccc(-c2nnc(C(F)F)o2)cn1)c1cccc(F)c1)C1(F)CN(C2CCC2)C1
Readout: pIC50
Reading: 7.26
//
Substance smiles: CN(C)CCC(=O)N1CC(F)(C(=O)N(Cc2ccc(-c3nnc(C(F)F)o3)cn2)c2ccccc2)C1
Readout: pIC50
Reading: 7.61
//
Substance smiles: CC(C)N1CC(F)(C(=O)N(Cc2ccc(-c3nnc(C(F)F)o3)cn2)c2ccccc2)C1
Readout: pIC50
Reading: 7.32
//
Substance smiles: CS(=O)(=O)N1CC(F)(C(=O)N(Cc2ccc(-c3nnc(C(F)F)o3)cc2F)c2ccccc2)C1
Readout: pIC50
Reading: 6.88
